- assay_explanation: Analytical reversed-phase HPLC elution (hydrophobicity)
- Assay type: physicochemical
- particulars: Table S1; analytical RP-HPLC, SunFire C18, water/ACN + 0.1% TFA, 5 to 100% B linear over 30 min, 1 mL/min, UV 220 nm; approximate comparison of hydrophobicity
Square brackets hold non-standard residues; d marks the D form. Peptide text beside a SMILES is read from it. Gly(N(CH2)2(3-indolyl)) = O=C(O)CNCCc1c[nH]c2ccccc12; Nspe = C[C@H](NCC(=O)O)c1ccccc1; Nphe = O=C(O)CNCc1ccccc1; Nlys = NCCCCNCC(=O)O
// reported HPLC elution for each item listed

- compound: "C[C@@H](c1ccccc1)N(CC(N)=O)C(=O)CN(C(=O)CN(CCCCN)C(=O)CN(C(=O)CN(C(=O)CN(CCCCN)C(=O)CN(C(=O)CN(CCCCN)C(=O)CN(CCCCN)C(=O)CN(CCc1c[nH]c2ccccc12)C(=O)CN(CCc1c[nH]c2ccccc12)C(=O)CNCCCCN)[C@@H](C)c1ccccc1)[C@@H](C)c1ccccc1)[C@@H](C)c1ccccc1)[C@@H](C)c1ccccc1 [peptoid 34]"
  HPLC elution (% MeCN): 48.6
- compound: "C[C@@H](c1ccccc1)N(CC(=O)N(CCCCN)CC(=O)N(CC(=O)N(CC(=O)N(CCCCN)CC(=O)N(CCCCN)CC(=O)N(CC(=O)N(CCCCN)CC(=O)N(CCc1c[nH]c2ccccc12)CC(=O)N(CCc1c[nH]c2ccccc12)CC(N)=O)Cc1ccccc1)[C@@H](C)c1ccccc1)[C@@H](C)c1ccccc1)C(=O)CN(C(=O)CNCCCCN)[C@@H](C)c1ccccc1 [peptoid 39] (H-[Nlys][Nspe][Nspe][Nlys][Nspe][Nspe][Nlys][Nlys][Nphe][Nlys][Gly(N(CH2)2(3-indolyl))][Gly(N(CH2)2(3-indolyl))]-NH2)"
  HPLC elution (% MeCN): 47.8
- compound: "NCCCCNCC(=O)N(CC(=O)N(CC(=O)N(CCCCN)CC(=O)N(CC(=O)N(CC(=O)N(CCCCN)CC(=O)N(CC(=O)N(CC(=O)N(CCCCN)CC(=O)N(CC(=O)N(CC(N)=O)Cc1ccccc1)Cc1ccccc1)Cc1ccccc1)Cc1ccccc1)Cc1ccccc1)Cc1ccccc1)Cc1ccccc1)Cc1ccccc1 [peptoid 2, reference compound] (H-[Nlys][Nphe][Nphe][Nlys][Nphe][Nphe][Nlys][Nphe][Nphe][Nlys][Nphe][Nphe]-NH2)"
  HPLC elution (% MeCN): 50.7
- compound: "C[C@@H](c1ccccc1)N(CC(N)=O)C(=O)CN(CCCCN)C(=O)CN(C(=O)CN(C(=O)CN(CCCCN)C(=O)CN(C(=O)CN(CCCCN)C(=O)CN(CCCCN)C(=O)CN(C(=O)CN(C(=O)CNCCCCN)[C@@H](C)c1ccccc1)[C@@H](C)c1ccccc1)[C@@H](C)c1ccccc1)[C@@H](C)c1ccccc1)[C@@H](C)c1ccccc1 [peptoid 51]"
  HPLC elution (% MeCN): 45.3
- compound: "C[C@@H](c1ccccc1)N(CC(N)=O)C(=O)CN(CCCCN)C(=O)CN(C(=O)CN(C(=O)CN(CCCCN)C(=O)CN(C(=O)CN(CCCCN)C(=O)CN(CCCCN)C(=O)CN(C(=O)CN(C(=O)CN(CCCCN)C(=O)CNCCc1c[nH]c2ccccc12)[C@@H](C)c1ccccc1)[C@@H](C)c1ccccc1)[C@@H](C)c1ccccc1)[C@@H](C)c1ccccc1)[C@@H](C)c1ccccc1 [peptoid 59]"
  HPLC elution (% MeCN): 47.8

Entry source: paper PMC10460844
